Sourced from patent US9428503B2

- study-target: ATR kinase (Homo sapiens (Human))
- assay-details: Assay b) ATR cellular potency assay (pChk1 Ser345 in HT29 cells treated with 4NQO)
- test-parameters: HT29 cells, pChk1 Ser345 after 4NQO; geometric mean where repeated; read-out: Assay b) ATR Cell IC50
observed-property: IC50

Sample answers from the record:
{"compound": "Cn1c(=O)n(C2CCCOC2)c2c3cc(-c4ccc(OCCCN5CCC5)nc4)ccc3ncc21 (stereo in doubt) [Example 60]", "reported-measurement": "> 24 µM"}
{"compound": "CN(C)CCCOc1ccc(-c2ccc3ncc4c(c3c2)n(C2COC2)c(=O)n4C)c(F)n1 [Example 52]", "reported-measurement": "> 30 µM"}
{"compound": "CO[C@H]1C[C@@H](n2c(=O)n(C)c3cnc4cc(F)c(-c5ccc(OCCCN6CCCC6)nc5)cc4c32)C1 [Example 27]", "reported-measurement": "> 23.3 µM"}

Entry CO[C@H]1C[C@@H](n2c(=O)n(C)c3cnc4ccc(-c5ccc(OCCCN6CCC6)nc5)cc4c32)C1 [Example 38] : reported IC50 = ?
> 24.4 µM

====

# pIC50 annotations
- study-target: ATR kinase (Homo sapiens (Human), UniProt Q13535)
- Sequence (Q13535 whole entry): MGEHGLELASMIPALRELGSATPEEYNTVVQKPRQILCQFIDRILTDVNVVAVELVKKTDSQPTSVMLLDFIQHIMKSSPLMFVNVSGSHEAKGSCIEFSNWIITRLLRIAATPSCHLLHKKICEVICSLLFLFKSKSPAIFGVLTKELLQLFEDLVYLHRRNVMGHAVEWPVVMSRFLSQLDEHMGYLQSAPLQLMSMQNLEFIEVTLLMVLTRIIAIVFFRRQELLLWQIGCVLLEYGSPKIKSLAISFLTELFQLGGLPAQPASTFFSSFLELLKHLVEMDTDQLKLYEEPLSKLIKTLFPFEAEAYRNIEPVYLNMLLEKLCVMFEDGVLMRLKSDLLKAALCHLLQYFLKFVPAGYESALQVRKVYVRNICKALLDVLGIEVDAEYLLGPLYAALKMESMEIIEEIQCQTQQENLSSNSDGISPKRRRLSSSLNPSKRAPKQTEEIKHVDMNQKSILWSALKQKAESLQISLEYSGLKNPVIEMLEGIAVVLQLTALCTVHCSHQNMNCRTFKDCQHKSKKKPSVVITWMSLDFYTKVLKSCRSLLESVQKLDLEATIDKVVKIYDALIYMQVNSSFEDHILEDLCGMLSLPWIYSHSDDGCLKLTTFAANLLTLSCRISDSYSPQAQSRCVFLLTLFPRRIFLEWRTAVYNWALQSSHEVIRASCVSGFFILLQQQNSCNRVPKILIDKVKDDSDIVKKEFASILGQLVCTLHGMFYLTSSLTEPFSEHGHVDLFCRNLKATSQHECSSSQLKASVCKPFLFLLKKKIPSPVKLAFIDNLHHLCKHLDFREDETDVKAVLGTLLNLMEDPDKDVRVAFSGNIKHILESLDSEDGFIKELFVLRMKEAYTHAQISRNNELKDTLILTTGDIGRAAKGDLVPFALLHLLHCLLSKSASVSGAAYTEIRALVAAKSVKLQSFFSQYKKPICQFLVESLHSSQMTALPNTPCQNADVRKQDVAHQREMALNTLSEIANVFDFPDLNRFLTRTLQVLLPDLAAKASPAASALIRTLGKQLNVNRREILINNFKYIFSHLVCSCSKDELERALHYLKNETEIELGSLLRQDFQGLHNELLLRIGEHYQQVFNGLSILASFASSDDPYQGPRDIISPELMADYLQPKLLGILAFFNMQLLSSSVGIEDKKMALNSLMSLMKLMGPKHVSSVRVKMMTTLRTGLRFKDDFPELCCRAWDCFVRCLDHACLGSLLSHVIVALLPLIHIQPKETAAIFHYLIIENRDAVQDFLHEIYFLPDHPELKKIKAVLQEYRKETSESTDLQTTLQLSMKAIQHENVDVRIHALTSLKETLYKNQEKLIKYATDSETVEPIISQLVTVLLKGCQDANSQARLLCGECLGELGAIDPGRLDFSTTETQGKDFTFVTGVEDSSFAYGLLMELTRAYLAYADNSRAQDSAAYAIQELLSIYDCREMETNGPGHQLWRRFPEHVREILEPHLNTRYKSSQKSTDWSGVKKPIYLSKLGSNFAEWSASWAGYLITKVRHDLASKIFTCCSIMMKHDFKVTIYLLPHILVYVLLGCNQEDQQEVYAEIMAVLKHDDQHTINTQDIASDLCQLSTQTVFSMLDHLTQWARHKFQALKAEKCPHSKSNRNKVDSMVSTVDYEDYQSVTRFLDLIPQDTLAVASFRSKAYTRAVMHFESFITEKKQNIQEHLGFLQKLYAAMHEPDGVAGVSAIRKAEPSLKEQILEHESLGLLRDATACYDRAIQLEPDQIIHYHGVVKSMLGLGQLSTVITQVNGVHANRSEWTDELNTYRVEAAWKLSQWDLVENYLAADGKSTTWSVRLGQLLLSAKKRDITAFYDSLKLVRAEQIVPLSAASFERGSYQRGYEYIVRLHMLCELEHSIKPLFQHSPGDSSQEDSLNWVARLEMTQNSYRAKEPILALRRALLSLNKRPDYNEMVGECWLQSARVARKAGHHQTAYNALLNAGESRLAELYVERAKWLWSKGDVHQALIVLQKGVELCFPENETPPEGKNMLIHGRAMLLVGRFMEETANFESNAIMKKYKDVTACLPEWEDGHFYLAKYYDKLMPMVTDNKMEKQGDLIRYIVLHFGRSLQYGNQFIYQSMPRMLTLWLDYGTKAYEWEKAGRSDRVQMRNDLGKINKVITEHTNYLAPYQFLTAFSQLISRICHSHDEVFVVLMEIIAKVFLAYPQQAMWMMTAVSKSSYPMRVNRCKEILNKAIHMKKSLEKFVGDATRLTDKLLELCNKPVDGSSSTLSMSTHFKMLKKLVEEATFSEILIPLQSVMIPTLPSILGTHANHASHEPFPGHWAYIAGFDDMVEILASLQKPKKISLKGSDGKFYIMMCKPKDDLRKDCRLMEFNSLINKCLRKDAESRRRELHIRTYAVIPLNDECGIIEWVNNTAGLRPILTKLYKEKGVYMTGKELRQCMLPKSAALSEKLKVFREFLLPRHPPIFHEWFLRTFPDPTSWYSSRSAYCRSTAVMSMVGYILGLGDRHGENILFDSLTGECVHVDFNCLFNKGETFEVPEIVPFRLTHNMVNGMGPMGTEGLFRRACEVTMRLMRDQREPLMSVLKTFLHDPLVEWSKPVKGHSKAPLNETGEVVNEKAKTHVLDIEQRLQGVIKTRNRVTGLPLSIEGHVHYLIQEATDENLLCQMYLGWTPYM
- Sequence (Q8WXE1 whole entry partner): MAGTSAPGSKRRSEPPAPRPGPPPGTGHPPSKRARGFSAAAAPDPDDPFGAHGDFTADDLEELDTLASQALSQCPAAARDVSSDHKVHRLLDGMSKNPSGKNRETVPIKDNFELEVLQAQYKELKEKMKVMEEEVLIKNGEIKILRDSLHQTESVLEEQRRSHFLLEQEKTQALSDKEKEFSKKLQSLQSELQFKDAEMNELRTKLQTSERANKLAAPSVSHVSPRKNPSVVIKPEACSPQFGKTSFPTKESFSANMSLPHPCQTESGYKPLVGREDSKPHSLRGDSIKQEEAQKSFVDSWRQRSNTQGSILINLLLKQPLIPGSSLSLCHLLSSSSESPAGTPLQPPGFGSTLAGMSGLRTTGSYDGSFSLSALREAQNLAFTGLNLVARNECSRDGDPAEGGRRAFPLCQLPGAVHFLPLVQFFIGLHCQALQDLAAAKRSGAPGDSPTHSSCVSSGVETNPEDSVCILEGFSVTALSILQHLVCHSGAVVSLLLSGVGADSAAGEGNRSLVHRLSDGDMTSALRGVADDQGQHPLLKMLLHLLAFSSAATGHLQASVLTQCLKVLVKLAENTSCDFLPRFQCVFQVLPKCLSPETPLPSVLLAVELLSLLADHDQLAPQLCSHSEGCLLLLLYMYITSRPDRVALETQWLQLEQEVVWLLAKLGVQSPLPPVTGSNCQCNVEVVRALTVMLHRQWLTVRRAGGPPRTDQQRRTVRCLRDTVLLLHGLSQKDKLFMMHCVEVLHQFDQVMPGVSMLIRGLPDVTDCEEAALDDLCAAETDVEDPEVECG
- assay-details: Assay b) ATR cellular potency assay (pChk1 Ser345 in HT29 cells treated with 4NQO)
- test-parameters: HT29 cells, pChk1 Ser345 after 4NQO; geometric mean where repeated; read-out: Assay b) ATR Cell IC50
pIC50: −log10 of the molar value. Where a name gives a salt, the structure may show the parent alone.

Some solved cases for reference:
{"compound": "Cn1c(=O)n(C2CCOCC2)c2c3cc(-c4ccc(OCCCN5CCC5)nc4)ccc3ncc21", "pIC50": 4.97}
{"compound": "Cn1c(=O)n([C@@H]2CCCOC2)c2c3cc(-c4ccc(OCCCN5CCC5)nc4)ccc3ncc21", "pIC50": "< 4.77"}

Can you look up the measured pIC50 of Cn1c(=O)n(C2COC2)c2c3cc(-c4ccc(OCCCN5CCCCC5)nc4)ccc3ncc21 [Example 56, trifluoroacetic acid salt] for me?
< 4.52

Requested field: pIC50. Item: CO[C@@H]1CC[C@@H](n2c(=O)n(C)c3cnc4ccc(-c5ccc(OCCCN(C)C)nc5)cc4c32)C1
< 4.68

====

- study-target: ATR kinase (Homo sapiens (Human))
- assay-details: Assay b) ATR cellular potency assay (pChk1 Ser345 in HT29 cells treated with 4NQO)
- test-parameters: HT29 cells, pChk1 Ser345 after 4NQO; geometric mean where repeated; read-out: Assay b) ATR Cell IC50
pIC50: −log10 of the molar value.
observed-property: pIC50

// solved cases for pIC50 follow
{"molecule": "CN(C)CCCOc1ccc(-c2ccc3ncc4c(c3c2)n([C@@H]2CCOC2)c(=O)n4C)cn1 [Example 44]", "pIC50": "< 4.72"}
{"molecule": "CO[C@H]1CC[C@H](n2c(=O)n(C)c3cnc4cc(F)c(-c5ccc(OCCCN(C)C)nc5)cc4c32)C1 [Example 63]", "pIC50": "< 4.52"}
{"molecule": "CN(C)CCCOc1ccc(-c2ccc3ncc4c(c3c2)n([C@H]2CCCOC2)c(=O)n4C)cn1 [Example 17]", "pIC50": "< 4.52"}
{"molecule": "Cn1c(=O)n([C@@H]2CCCOC2)c2c3cc(-c4ccc(OCCCN5CCCC5)nc4)c(F)cc3ncc21 [Example 24]", "pIC50": "< 4.73"}

What pIC50 value was documented for this molecule, CN(C)CCCOc1ccc(-c2cc3c(cc2F)ncc2c3n(C3COC3)c(=O)n2C)cn1 [Example 9] ?
< 4.52

Which pIC50 value belongs to CO[C@@H]1CC[C@@H](n2c(=O)n(C)c3cnc4ccc(-c5ccc(OCCCN6CCCC6)nc5)cc4c32)C1 [Example 67] ?
4.82

Would you mind telling me what pIC50 value was observed for CNCCCOc1ccc(-c2ccc3ncc4c(c3c2)n([C@H]2CCCOC2)c(=O)n4C)cn1 [Example 41] ?
5.40

====

- study-target: UniProt Q13315
- assay-details: Assay a) ATM cellular potency assay (pATM Ser1981 in X-ray irradiated HT29 cells)
- test-parameters: HT29 cells, pATM Ser1981 after X-ray irradiation; geometric mean where repeated; read-out: Assay a) ATM Cell IC50
Flag rule - IC50 less than 1 nM flags 1; the remaining entries get -1.

{"smiles-notation": "CO[C@@H]1CC[C@H](n2c(=O)n(C)c3cnc4cc(F)c(-c5ccc(OCCCN(C)C)nc5)cc4c32)C1", "class-label": -1}
{"smiles-notation": "CN(C)CCCOc1ccc(-c2cc3c(cc2F)ncc2c3n(C3CCOCC3)c(=O)n2C)cn1", "class-label": 1}
{"smiles-notation": "Cn1c(=O)n([C@H]2CCCOC2)c2c3cc(-c4ccc(OCCCN5CCCCC5)nc4)c(F)cc3ncc21", "class-label": 1}
{"smiles-notation": "CO[C@H]1C[C@@H](n2c(=O)n(C)c3cnc4cc(F)c(-c5ccc(OCCCN(C)C)nc5F)cc4c32)C1", "class-label": -1}
{"smiles-notation": "CN(C)CCCOc1ccc(-c2ccc3ncc4c(c3c2)n([C@@H]2CCOC2)c(=O)n4C)cn1", "class-label": -1}

# check: IC50 < 1 nM for CN(C)CCCOc1ccc(-c2ccc3ncc4c(c3c2)n(C2CCC2)c(=O)n4C)cn1
-1

Consider the compound Cn1c(=O)n([C@H]2C[C@@H](O)C2)c2c3cc(-c4ccc(OCCCN5CCCC5)nc4)ccc3ncc21 . Is its IC50 strictly less than 1 nM?
1

====

- study-target: UniProt P42345
- assay-details: Assay d) mTOR cellular potency assay (phospho-AKT Ser473 in MDA-MB-468 cells)
- Format: cell-based
- test-parameters: MDA-MB-468 cells, phospho-AKT Ser473, 2 h; geometric mean where repeated; read-out: Assay d) mTOR Cell IC50
The reader will find reported pIC50 values listed item by item below.
Note on units: pIC50 is unitless, being -log10 of a concentration expressed in mol/L.

Worked examples follow.
{"smiles-notation": "CN(C)CCCOc1ccc(-c2cc3c(cc2F)ncc2c3n([C@H]3CCCOC3)c(=O)n2C)c(F)n1", "study-target": "UniProt P42345", "reported-measurement": 4.64}
{"smiles-notation": "Cn1c(=O)n([C@@H]2CCCOC2)c2c3cc(-c4ccc(OCCCN5CCCC5)nc4)ccc3ncc21", "study-target": "UniProt P42345", "reported-measurement": 6.21}
{"smiles-notation": "CN(C)CCCOc1ccc(-c2ccc3ncc4c(c3c2)n([C@H]2CCCOC2)c(=O)n4C)c(F)n1", "study-target": "UniProt P42345", "reported-measurement": 6.28}
{"smiles-notation": "CO[C@@H]1CC[C@@H](n2c(=O)n(C)c3cnc4ccc(-c5ccc(OCCCN6CCCCC6)nc5)cc4c32)C1", "study-target": "UniProt P42345", "reported-measurement": 4.92}
{"smiles-notation": "Cn1c(=O)n([C@H]2CCCOC2)c2c3cc(-c4ccc(OCCCN5CCCCC5)nc4)ccc3ncc21", "study-target": "UniProt P42345", "reported-measurement": 4.71}
{"smiles-notation": "CN(C)CCCOc1ccc(-c2cc3c(cc2F)ncc2c3n(C3CCOCC3)c(=O)n2C)cn1", "study-target": "UniProt P42345", "reported-measurement": 4.85}

# input for lookup
Param item = Cn1c(=O)n([C@@H]2CCCOC2)c2c3cc(-c4ccc(OCCCN5CCCCC5)nc4)ccc3ncc21 ; retrieve measured pIC50.
5.21

====

- study-target: UniProt:P42336
- Sequence (P42336 whole entry, looked up): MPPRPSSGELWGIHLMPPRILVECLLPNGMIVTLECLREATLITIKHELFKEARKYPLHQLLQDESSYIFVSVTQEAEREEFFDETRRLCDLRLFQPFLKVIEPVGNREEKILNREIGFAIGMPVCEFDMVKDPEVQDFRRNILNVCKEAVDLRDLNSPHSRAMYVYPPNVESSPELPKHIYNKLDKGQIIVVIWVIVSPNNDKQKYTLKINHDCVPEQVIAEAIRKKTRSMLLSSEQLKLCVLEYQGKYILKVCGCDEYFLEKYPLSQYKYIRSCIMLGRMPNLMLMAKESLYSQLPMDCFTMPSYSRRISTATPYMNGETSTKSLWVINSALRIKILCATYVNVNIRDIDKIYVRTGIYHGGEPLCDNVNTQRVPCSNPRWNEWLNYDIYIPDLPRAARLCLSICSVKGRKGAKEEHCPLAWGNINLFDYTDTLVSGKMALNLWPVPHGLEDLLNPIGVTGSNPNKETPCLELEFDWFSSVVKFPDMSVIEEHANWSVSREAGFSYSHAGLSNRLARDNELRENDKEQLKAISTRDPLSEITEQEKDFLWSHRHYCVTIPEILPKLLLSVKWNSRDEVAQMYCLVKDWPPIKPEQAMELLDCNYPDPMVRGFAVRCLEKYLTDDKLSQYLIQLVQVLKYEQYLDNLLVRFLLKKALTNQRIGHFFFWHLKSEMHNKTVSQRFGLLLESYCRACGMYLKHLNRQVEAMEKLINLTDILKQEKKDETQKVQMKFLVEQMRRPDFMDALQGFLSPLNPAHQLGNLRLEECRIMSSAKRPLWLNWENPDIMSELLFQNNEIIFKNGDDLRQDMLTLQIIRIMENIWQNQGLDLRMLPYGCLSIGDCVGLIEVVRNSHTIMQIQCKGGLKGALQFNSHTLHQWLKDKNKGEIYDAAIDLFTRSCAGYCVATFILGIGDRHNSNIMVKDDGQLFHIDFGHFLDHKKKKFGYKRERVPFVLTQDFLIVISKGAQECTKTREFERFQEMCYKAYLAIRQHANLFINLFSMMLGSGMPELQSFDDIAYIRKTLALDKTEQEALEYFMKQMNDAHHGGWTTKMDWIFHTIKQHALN
- assay-details: Assay c) PI3K cellular potency assay (phospho-Akt T308 ELISA in BT474 cells)
- test-parameters: BT474 cells, phospho-Akt T308, 2 h; geometric mean where repeated; read-out: Assay c) PI3Kα Cell IC50
Each entry falls into one class according to its IC50; the ranges are group 1: < 600 nM; group 2: ≥ 600 nM and < 2000 nM; group 3: ≥ 2000 nM

Solved entries:
{"compound": "CO[C@H]1C[C@@H](n2c(=O)n(C)c3cnc4ccc(-c5ccc(OCCCN6CCC6)nc5)cc4c32)C1 [Example 38]", "class-label": "group 2"}
{"compound": "CN(C)CCCOc1ccc(-c2ccc3ncc4c(c3c2)n(C2(C)CCOCC2)c(=O)n4C)cn1 [Example 7]", "class-label": "group 1"}
{"compound": "CN(C)CCCOc1ccc(-c2cc3c(cc2F)ncc2c3n(C3COC3)c(=O)n2C)cn1 [Example 9]", "class-label": "group 3"}
{"compound": "CN(C)CCCOc1ccc(-c2ccc3ncc4c(c3c2)n([C@H]2CCCOC2)c(=O)n4C)cn1 [Example 17]", "class-label": "group 2"}
{"compound": "Cn1c(=O)n([C@@H]2CCCOC2)c2c3cc(-c4ccc(OCCCN5CCCC5)nc4)ccc3ncc21 [Example 59]", "class-label": "group 1"}
{"compound": "Cn1c(=O)n(C2CCOCC2)c2c3cc(-c4ccc(OCCCN5CCCCC5)nc4)ccc3ncc21 [Example 37]", "class-label": "group 3"}
{"compound": "CNCCCOc1ccc(-c2ccc3ncc4c(c3c2)n(C2CCOCC2)c(=O)n4C)cn1 [Example 40]", "class-label": "group 1"}
{"compound": "CO[C@H]1C[C@@H](n2c(=O)n(C)c3cnc4cc(F)c(-c5ccc(OCCCN(C)C)nc5)cc4c32)C1 [Example 6]", "class-label": "group 3"}

Quick check: band for CO[C@@H]1CC[C@@H](n2c(=O)n(C)c3cnc4ccc(-c5ccc(OCCCN(C)C)nc5)cc4c32)C1 [Example 25]
group 2

Consider CN(C)CCCOc1ccc(-c2ccc3ncc4c(c3c2)n(C2CCC2)c(=O)n4C)c(F)n1 [Example 51] . To which IC50 class does it belong?
group 3

Returns: class label. Input: Cn1c(=O)n([C@H]2CCCOC2)c2c3cc(-c4ccc(OCCCN5CCCC5)nc4)c(F)cc3ncc21 [Example 23]
group 3
